Measured values drawn from paper PMC7157241 for this set.

- assay-overview: Mammalian cell cytotoxicity assay (AlamarBlue, 48 h)
- Type: cell-based
- condition-context: human, Figure 3, Scaffold 1 optimization; read-out: CC50
property: CC50 at 48 h (µM)
Answer with a number only, understood to be in µM.

// query Provide measured CC50 at 48 h value, entry: O=C(Nc1ccc(Cl)c(-c2nc3ncccc3o2)c1)c1ccco1
// result 50

----------
- assay-overview: Brain permeability studies in mice (brain to plasma ratio)
- Assay type: in vivo, mouse
- condition-context: brain and plasma, intraperitoneal, 5 mg/kg; Figures 4 and 5; mouse; read-out: Brain:Plasma ratio
property: Kp at 1 h
In your answer, state the number alone without any accompanying words.

// query Provide measured Kp at 1 h value, entry: COc1cc(N2C(=O)CN(Cc3ccc(F)cc3Cl)C2=S)ccc1N(C)C
// result 1.68
